From: PubChem BioAssay

- PROTOCOL DETAILS: S6 kinase pathway phospho-S6 level changes – cell-based, A549, cytoblot, luminescence, serum-stimulated, primary screen (AID 1158);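 note: serum-stimulated A549 lung adenocarcinoma cells; signal is phosphorylated S6 detected by cytoblot immunostaining with HRP secondary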
- EXPERIMENTAL PARAMETERS: 5 h, higher = more signal
Record form. Attribute: z-score. Fill in for each entry.
Keep it simple and answer with nothing but the number.

Request: Which z-score is reported for this molecule? O=C1O[C@H](c2ccccc2)[C@H](c2ccccc2)N2[C@H]1[C@@H](C(=O)N1CCN(c3ncccn3)CC1)[C@]1(C(=O)Nc3ccc(C#CCCO)cc31)[C@H]2c1ccccc1OCCO
Response: -0.673

Request: Which z-score is reported for this molecule? CN(C)CCCC[C@@H]1NC(=O)[C@H]2C[C@@H](C(=O)NCCCCCCNC(=O)CS)[C@@H](c3ccc(O)cc3)N2C1=O
Response: 0.469

Request: Which z-score is reported for this molecule? COc1ccc([Si](C)(C)[C@@H]2[C@@H](CCO)O[C@]3(C(=O)N(Cc4ccccc4)c4ccc(N5C(=O)COc6ccccc65)cc43)[C@H]2C)cc1
Response: 0.631

###

- System: XIP peptide (Xip251-270)
- PROTOCOL DETAILS: compounds binding XIP fragment 251-270 – biochemical, small-molecule microarray, fluorescence 635/667 nm, 0.5 µg/mL protein, primary screen (AID 1183)
- EXPERIMENTAL PARAMETERS: fluorescence 635 nm, higher = more signal
Record form. Attribute: composite z-score. Fill in for each entry.
Keep it simple and answer with nothing but the number.

Request: Short answer please: composite z-score, XIP peptide (Xip251-270), entry CCCC[C@@H](O)C1=C(COc2ccccc2)Cn2c(=O)n(-c3ccccc3)c(=O)n2[C@H]1CO
Response: 0.628

Request: Short answer please: composite z-score, XIP peptide (Xip251-270), entry C=C(CCCC)/C(=C/C[C@@H](OC(=O)c1ccncc1)c1ccccc1OCCO)c1cc(C(=O)OC)ccc1OC
Response: -0.127

Request: Short answer please: composite z-score, XIP peptide (Xip251-270), entry [N-]=[N+]=NCc1ccccc1C[C@@]1(C(=O)NCCN2CCOCC2)N=C(c2ccc(OCCCO)cc2)O[C@@H]1c1ccccc1CN=[N+]=[N-]
Response: 0.743

Request: Short answer please: composite z-score, XIP peptide (Xip251-270), entry COC(=O)[C@@]1(Cc2ccc(F)cc2)[C@H]2c3cc(C(=O)N(C)C)n(Cc4ccc(C)c(F)c4F)c3C[C@H]2CN1C(=O)c1ccccc1
Response: -0.0688

Request: Short answer please: composite z-score, XIP peptide (Xip251-270), entry O=C1C[C@@](C(=O)O)(c2ccc([N+](=O)[O-])cc2)[C@@H](c2ccc(CO)cc2)N1CC12CC3CC(CC(C3)C1)C2
Response: 0.748

Request: Short answer please: composite z-score, XIP peptide (Xip251-270), entry [N-]=[N+]=Nc1ccccc1C[C@]1(C(=O)NCCN2CCOCC2)N=C(c2ccc(OCCCO)cc2)O[C@H]1c1ccccc1N=[N+]=[N-]
Response: 0.682

Request: Short answer please: composite z-score, XIP peptide (Xip251-270), entry NC(=O)[C@@H]1[C@H]2C(=O)O[C@H](c3ccccc3)[C@H](c3ccccc3)N2[C@H](c2ccccc2OCCO)[C@@]12C(=O)Nc1ccc(C#CCCO)cc12
Response: 0.588

Request: Short answer please: composite z-score, XIP peptide (Xip251-270), entry C=CCN1C(=O)[C@@]2(O[C@@H](CCn3cc([C@H](O)c4ccccc4)nn3)[C@H]([Si](C)(C)c3ccc(OC)cc3)[C@H]2C)c2cc(NC(=O)c3ccc(OC)cc3)ccc21
Response: 0.189

Request: Short answer please: composite z-score, XIP peptide (Xip251-270), entry COc1ccc(CCNC(=O)[C@@H]2c3ccccc3C(=O)N(Cc3ccccc3)[C@H]2c2ccc(CO)cc2)cc1
Response: 0.619

Request: Short answer please: composite z-score, XIP peptide (Xip251-270), entry Cc1cc(C)c(C(O)C2C=CC3C(=O)N(c4ccccc4)C(=O)C3N2Nc2ccc([N+](=O)[O-])cc2)c(C)c1 (stereo not drawn)
Response: 0.783

Request: Short answer please: composite z-score, XIP peptide (Xip251-270), entry CC(C)c1ccc(NN2C(C(O)c3ccccn3)C=CC3C(=O)N(c4ccccc4)C(=O)C32)cc1 (stereo not drawn)
Response: 0.69

Request: Short answer please: composite z-score, XIP peptide (Xip251-270), entry COC(=O)c1ccc(OC)c(/C=C\CC(CCc2ccccc2)OC(=O)c2ccncc2)c1 (stereo not drawn)
Response: -0.329

Request: Short answer please: composite z-score, XIP peptide (Xip251-270), entry CCOC(=O)C[C@H]1[C@H](OC(=O)c2cc3ccccc3oc2=O)[C@@H](NC(=O)c2ccc3ccccc3n2)c2cc(OCCCO)ccc2N1C(=O)c1ccc2ccccc2n1
Response: 0.484

Request: Short answer please: composite z-score, XIP peptide (Xip251-270), entry COC(=O)C(CC#Cc1ccc2c(c1)[C@]1(C(=O)N2)[C@H](c2ccc(OCCO)cc2)N2[C@H](c3ccccc3)[C@H](c3ccccc3)OC(=O)[C@H]2[C@@H]1C(=O)O)C(=O)OC
Response: 0.862

Request: Short answer please: composite z-score, XIP peptide (Xip251-270), entry COc1cc(C(O)C2C=CC3C(=O)N(C)C(=O)C3N2NC(=O)OC(C)(C)C)cc(OC)c1OC (stereo not drawn)
Response: 0.157

Request: Short answer please: composite z-score, XIP peptide (Xip251-270), entry CCCCC(=C=CC[C@H](O)c1cccc(OCCO)c1)C[C@H](O)COCc1ccccc1
Response: 0.752

Request: Short answer please: composite z-score, XIP peptide (Xip251-270), entry CCCC=C(CCC)[C@@H](NS(=O)(=O)CC)c1ccccc1
Response: 0.52

Request: Short answer please: composite z-score, XIP peptide (Xip251-270), entry CO[C@H]1O[C@H](CO)[C@@H](OC(=O)Nc2ccc(C(F)(F)F)cc2)[C@H](OC(=O)Nc2ccccc2)[C@H]1OC(=O)Nc1ccccc1
Response: 0.911

Request: Short answer please: composite z-score, XIP peptide (Xip251-270), entry CC(C)=CCCC(C)=CC(O)C1C=CC2C(=O)N(c3ccccc3)C(=O)C2N1Nc1ccc([N+](=O)[O-])cc1 (stereo not drawn)
Response: 0.817

Request: Short answer please: composite z-score, XIP peptide (Xip251-270), entry COc1cc2c(cc1OC)CN(C(=O)[C@@H]1[C@H]3C(=O)O[C@H](c4ccccc4)[C@H](c4ccccc4)N3[C@H](c3ccc(O)cc3)[C@@]13C(=O)Nc1ccc(C#CCNC(N)=O)cc13)CC2
Response: -0.0161

Request: Short answer please: composite z-score, XIP peptide (Xip251-270), entry CC(C)CCC[C@@H](C)[C@H]1CC[C@@]2(C)C3=C(CC[C@]12C)[C@@]1(C)CC[C@H](OC(=O)C(C)(C)C)C(C)(C)C1CC3 (stereo partly drawn)
Response: -0.0722

Request: Short answer please: composite z-score, XIP peptide (Xip251-270), entry CO[C@H]1O[C@H](CO)[C@@H](OC(=O)Nc2cccc(F)c2)[C@H](OC(=O)Nc2ccc3c(c2)OCO3)[C@H]1OC(=O)Nc1ccc2c(c1)OCO2
Response: 0.813

Request: Short answer please: composite z-score, XIP peptide (Xip251-270), entry COC(=O)[C@@]1(Cc2ccc(F)cc2)[C@@H]2[C@@H](CC(=O)[C@H]2CC(=O)C(=O)N2CCCC2)CN1C(=O)c1ccccc1
Response: 0.663

Request: Short answer please: composite z-score, XIP peptide (Xip251-270), entry Cc1ccc(S[C@]2(C(=O)NCCN3CCOCC3)CC(=O)N(C3Cc4ccccc4C3)[C@@H]2c2ccc(CO)cc2)cc1
Response: 0.547

Request: Short answer please: composite z-score, XIP peptide (Xip251-270), entry O=C1OCCC=C[C@H]2OC34C=CCN(Cn5nnc6ccccc65)C(=O)[C@H]3N(CCCCCO)C(=O)[C@@H]4C12 (stereo partly drawn)
Response: -0.75

Request: Short answer please: composite z-score, XIP peptide (Xip251-270), entry C=C(COC)/C(=C/C[C@@H](OC(=O)c1ccncc1)c1cccc(OCCO)c1)c1cc(C(=O)OC)ccc1OC
Response: 0.657

Request: Short answer please: composite z-score, XIP peptide (Xip251-270), entry C[N+](C)(C)CCCCCCNC(=O)[C@@H]1C[C@@H]2C(=O)NCC(=O)N2[C@@H]1c1cccc(OCCO)c1
Response: 0.421

Request: Short answer please: composite z-score, XIP peptide (Xip251-270), entry COc1ccc([Si](C)(C)[C@H]2[C@H](CC(=O)N3CCC[C@H]3CO)O[C@@]3(C(=O)N(Cc4ccc(N5C(=O)c6cccc7cccc5c67)cc4)c4ccccc43)[C@@H]2C)cc1
Response: 0.803
